The origin of these recorded values is paper PMC6201879.

Test: Metabolic stability in human liver microsomes
Format: in vitro ADME
Conditions: 0.5mg/ml microsomes without NADPH
Can you tell me Remaining Percentage of 60 min (%), Human, Negative Control for the items I'm about to list?
Param answer (str): number followed by unit.

| input-smiles | value-observed |
| --- | --- |
| COC(=O)c1ccc(NC(=O)c2cccc(C(C)(C)C)c2O)c(Cl)c1 | 3.8% |
| CC(C)(C)c1ccc(O)c(C(=O)Nc2cc(C(=O)O)ccc2Cl)c1 | 92.8% |
| CC(C)(C)c1cc(C(=O)Nc2ccc(C(=O)O)cc2Cl)c(O)c(C(C)(C)C)c1 | 92.2% |
| CC(C)(C)c1ccc(O)c(C(=O)Nc2ccc(C(=O)O)cc2Cl)c1 | 110.2% |

What Remaining Percentage of 60 min (%), Human, Negative Control value was documented for this molecule, CC(C)(C)c1ccc(O)c(C(=O)Nc2ccc(C(=O)O)cc2C(F)(F)F)c1 ?
97.7%
